The values you see were collected from BigSolDB 2.1.

conditions: in methanol, 283.15 K
Property Name: solubility (mole fraction)
I'd appreciate a reply containing only the number, no unit.

Ask | What value of solubility (mole fraction) has been reported for the following compound? "C#CC(C)(C)NC(=O)c1cc(Cl)cc(Cl)c1"
Reply | 0.0077

###

conditions: in cyclohexane, 323.15 K
Property Name: solubility (mole fraction)

Ask | If you can, please state the reported solubility (mole fraction) value of "C#CC(C)(C)NC(=O)c1cc(Cl)cc(Cl)c1" .
Reply | 0.00124

###

details: in methanol, 313.15 K
Property Name: solubility (mole fraction)
Just the number, please, no unit after it.

Ask | Could you tell me which solubility (mole fraction) is on file for "C#CC(C)(C)NC(=O)c1cc(Cl)cc(Cl)c1" ?
Reply | 0.0201

###

conditions: in toluene, 313.15 K
Property Name: solubility (mole fraction)

Ask | Which solubility (mole fraction) value belongs to "C#CC(C)(C)NC(=O)c1cc(Cl)cc(Cl)c1" ?
Reply | 0.00924

###

settings: in cyclohexane, 303.15 K
Property Name: solubility (mole fraction)
Enter the number alone.

Ask | Form field: reported solubility (mole fraction) of "C#CC(C)(C)NC(=O)c1cc(Cl)cc(Cl)c1"
Reply | 0.000544

###

details: in isopropanol, 298.15 K
Property Name: solubility (mole fraction)
// response body must contain only the number

Ask | Name the recorded solubility (mole fraction) for "C#CC(C)(C)NC(=O)c1cc(Cl)cc(Cl)c1" .
Reply | 0.00705

###

settings: in ethanol, 323.15 K
Property Name: solubility (mole fraction)
# output: bare number, no unit

Ask | Give its solubility (mole fraction) value. Item: "C#CC(C)(C)NC(=O)c1cc(Cl)cc(Cl)c1"
Reply | 0.0295

###

conditions: in methanol, 318.15 K
Property Name: solubility (mole fraction)
Simply state the number, no unit and no words.

Ask | Entry "C#CC(C)(C)NC(=O)c1cc(Cl)cc(Cl)c1" : reported solubility (mole fraction) = ?
Reply | 0.0236

###

details: in ethanol, 283.15 K
Property Name: solubility (mole fraction)
Please state the value as a number alone, without comment.

Ask | Data request, read-out solubility (mole fraction), for "C#CC(C)(C)NC(=O)c1cc(Cl)cc(Cl)c1"
Reply | 0.00834

###

details: in toluene, 303.15 K
Property Name: solubility (mole fraction)
Please reply with the value in numeric form only.

Ask | Given the compound "C#CC(C)(C)NC(=O)c1cc(Cl)cc(Cl)c1" , what is its reported solubility (mole fraction)?
Reply | 0.00593

###

details: in isopropanol, 323.15 K
Property Name: solubility (mole fraction)
Form rule: numeric answer, no unit written next to it.

Ask | Please give the measured solubility (mole fraction) for this molecule: "C#CC(C)(C)NC(=O)c1cc(Cl)cc(Cl)c1"
Reply | 0.023

###

settings: in isopropanol, 293.15 K
Property Name: solubility (mole fraction)
I'd appreciate a reply containing only the number, no unit.

Ask | Entry "C#CC(C)(C)NC(=O)c1cc(Cl)cc(Cl)c1" has what solubility (mole fraction)?
Reply | 0.00526

###

settings: in cyclohexane, 298.15 K
Property Name: solubility (mole fraction)

Ask | Field request: solubility (mole fraction) | item: "C#CC(C)(C)NC(=O)c1cc(Cl)cc(Cl)c1"
Reply | 0.000425
